Measured values drawn from ChEMBL document CHEMBL1132932 for this set.

Starred links: 1 amine or outer side, 2 acyl side, 3 side chain; linkers in the order of their positions; H or OH if unused. Non-standard residues stand in square brackets, D forms with d. Residues, ends and D or L forms follow the SMILES beside them. *: point of attachment. NHCHPh2 = c1ccc(C(N*)c2ccccc2)cc1; Suc = O=C(CCC(=O)[*:2])[*:1]; Isovaleryl = CC(C)CC(=O)*; Ac5c = NC1(C(=O)O)CCCC1; NHBn = c1ccc(CN*)cc1
Reported pIC50 for target or system UniProt P62937, by entry.
Keep in mind that pIC50 stands for -log10 of concentration in molar terms.

Return reported pIC50; argument: CC(=O)N[C@H](C(=O)N[C@@H](Cc1cnc[nH]1)C(=O)N[C@@H](C)C(=O)NCC(=O)N1CCC[C@H]1C(=O)N[C@H](C(=O)N[C@@H](C)C(N)=O)C(C)C)C(C)C 2.82

// repeat for CC[C@H](C)[C@H](NC(=O)[C@@H]1CCCN1C(=O)CNC(=O)[C@H](C)NC(=O)[C@H](Cc1cnc[nH]1)NC(=O)[C@@H](NC(C)=O)C(C)C)C(=O)N[C@@H](C)C(N)=O and report 3.07

// repeat for CC[C@H](C)[C@H](NC(=O)[C@@H]1CCCN1C(=O)CNC(=O)[C@H](C)NC(=O)[C@H](Cc1cnc[nH]1)NC(=O)[C@@H](N)C(C)C)C(=O)NCc1ccccc1 (H-VHAGPI-NHBn) and report 3.59

// repeat for CC[C@H](C)[C@H](NC(=O)[C@@H]1CCCN1C(=O)CNC(=O)[C@H](C)NC(=O)[C@H](Cc1c[nH]cn1)NC(=O)[C@@H](NC(C)=O)C(C)C)C(=O)NC(c1ccccc1)c1ccccc1 (Ac-VHAGPI-NHCHPh2) and report 2.82

// repeat for CC(C)CC(=O)N[C@@H](Cc1cnc[nH]1)C(=O)N[C@@H](C)C(=O)NCC(=O)N1CCC[C@H]1C(=O)NC1(C(=O)NCc2ccccc2)CCCC1 (Isovaleryl-HAGP[Ac5c]-NHBn) and report 4.05

// repeat for CC[C@H](C)[C@H](NC(=O)[C@@H]1CCCN1C(=O)CNC(=O)[C@H](C)NC(=O)[C@H](Cc1c[nH]cn1)NC(=O)[C@@H](NC(=O)CCC(=O)O)C(C)C)C(=O)N[C@@H](C)C(N)=O (Suc-VHAGPIA-NH2) and report 3.00

// repeat for CC(=O)N[C@H](C(=O)N[C@@H](Cc1cnc[nH]1)C(=O)N[C@@H](C)C(=O)NCC(=O)N1CCC[C@H]1C(=O)N[C@@H](CCC(N)=O)C(=O)N[C@@H](C)C(N)=O)C(C)C and report 2.89

* * *

- SYSTEM NAME: Peptidyl-prolyl cis-trans isomerase A (Homo sapiens, UniProt P62937)
- PROTOCOL SUMMARY: % inhibition of competitive binding, at 500 uM, against human Peptidyl-prolyl isomerase
- Sequence (P62937 whole entry, looked up): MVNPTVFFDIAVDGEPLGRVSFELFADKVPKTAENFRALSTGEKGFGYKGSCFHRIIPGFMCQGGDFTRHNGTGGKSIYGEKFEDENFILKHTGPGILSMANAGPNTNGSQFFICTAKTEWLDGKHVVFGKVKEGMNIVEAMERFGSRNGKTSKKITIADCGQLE
Starred links: 1 amine or outer side, 2 acyl side, 3 side chain; linkers in the order of their positions; H or OH if unused. Non-standard residues stand in square brackets, D forms with d. Residues, ends and D or L forms follow the SMILES beside them. *: point of attachment. Suc = O=C(CCC(=O)[*:2])[*:1]; Isovaleryl = CC(C)CC(=O)*; Ac5c = NC1(C(=O)O)CCCC1; NHBn = c1ccc(CN*)cc1
So basically: inhibition at 40% or higher? That is y. Lower than 40%? That is n.

Evaluate CC[C@@H](C)[C@@H](NC(=O)[C@@H]1CCCN1C(=O)CNC(=O)C(C)(C)NC(=O)[C@H](Cc1c[nH]cn1)NC(=O)[C@@H](NC(C)=O)C(C)C)C(=O)N[C@H](C)C(N)=O : inhibition at minimum 40%? y

// repeat for CC[C@H](C)[C@H](NC(=O)[C@@H]1CCCN1C(=O)CNC(=O)[C@H](C)NC(=O)[C@H](Cc1c[nH]cn1)NC(=O)[C@@H](NC(C)=O)C(C)C)C(=O)NCc1ccccc1 (Ac-VHAGPI-NHBn) and report y

// repeat for CC[C@H](C)[C@H](NC(=O)[C@@H]1CCCN1C(=O)CNC(=O)[C@H](C)NC(=O)[C@H](Cc1c[nH]cn1)NC(=O)[C@@H](NC(=O)CCC(=O)O)C(C)C)C(=O)N[C@@H](C)C(N)=O (Suc-VHAGPIA-NH2) and report n

// repeat for CC(C)CC(=O)N[C@@H](Cc1c[nH]cn1)C(=O)N[C@@H](C)C(=O)NCC(=O)N1CCC[C@H]1C(=O)NC1(C(=O)NCc2ccccc2)CCCC1 (Isovaleryl-HAGP[Ac5c]-NHBn) and report y

// repeat for CC[C@H](C)[C@H](NC(=O)[C@@H]1CCCN1C(=O)CNC(=O)[C@H](C)NC(=O)[C@H](Cc1c[nH]cn1)NC(=O)[C@@H](N)C(C)C)C(=O)NCc1ccccc1 (H-VHAGPI-NHBn) and report y
